measured.target: Nuclear receptor ROR-gamma (Mus musculus) (UniProt P51450)
Sequence (P51450 whole entry, looked up): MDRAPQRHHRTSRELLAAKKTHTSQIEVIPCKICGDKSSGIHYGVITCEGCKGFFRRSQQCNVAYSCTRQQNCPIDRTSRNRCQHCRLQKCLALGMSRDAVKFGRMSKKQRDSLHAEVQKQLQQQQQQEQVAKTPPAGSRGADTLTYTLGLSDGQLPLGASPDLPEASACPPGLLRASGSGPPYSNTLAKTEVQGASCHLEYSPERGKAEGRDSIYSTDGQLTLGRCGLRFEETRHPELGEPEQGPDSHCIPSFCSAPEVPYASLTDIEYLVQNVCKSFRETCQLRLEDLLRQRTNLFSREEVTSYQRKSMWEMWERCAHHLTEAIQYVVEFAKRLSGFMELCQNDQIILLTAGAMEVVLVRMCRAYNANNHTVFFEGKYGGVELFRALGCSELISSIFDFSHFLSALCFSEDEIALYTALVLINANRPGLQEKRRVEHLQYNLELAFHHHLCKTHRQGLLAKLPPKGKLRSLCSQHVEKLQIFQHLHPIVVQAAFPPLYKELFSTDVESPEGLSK
method.notes: qHTS for inhibitors of ROR gamma transcriptional activity; also: nearly all actives have a fitted effect of over 60% in size
measurement.setup: Drosophila S2 Gal4-RORgamma UAS-luciferase reporter, 20 h; series mostly up to 53.6 µM
The whole screen tested about 310,000 compounds, of which about 17,000 (5.5%) were called active. Inconclusive results (about 11%) are left out. Calls follow the shape of the dose curve; as a rule, active = well fitted inhibition curve with a large enough effect; inconclusive = small, poorly fitted or top-dose-only effect, or effect the other way; inactive = no such curve, though single readings can be large or run the other way. The sample as a whole holds a higher share of actives than the screen did.
// classify into active, inactive

## Task Lab log entry: CC(C)Oc1ccc(CCc2nnc(SCC(=O)O)n2-c2ccccc2)cc1 — outcome as called in the assay?
## Result inactive

## Task And what about the compound CCOC(=O)CCCN1CC(O)=C(c2nc3ccccc3s2)C1=N ?
## Result inactive

## Task Record: Cc1ccc2c(=O)cc(C(=O)NCCc3ccc(S(N)(=O)=O)cc3)oc2c1C
## Result inactive

## Task Another compound to check: O=C(NCc1ccccc1)C(c1ccccc1)N(C(=O)c1csnn1)c1ccc(F)cc1 (configuration not stated)
## Result inactive

## Task Can you check COC(=O)c1ccc2ccccc2c1OC1OC(CO)C(O)C(O)C1NC(C)=O (configuration not stated) next?
## Result inactive

## Task Can you check Cc1cc(C(=O)N/N=C/c2ccc(O)c([N+](=O)[O-])c2)c(C)n1-c1ccc(F)cc1 next?
## Result inactive

## Task And then COc1ccccc1N1CC(O)=C(c2nc3ccccc3s2)C1=N , what is it?
## Result inactive

## Task Now try Cc1cccnc1CCNC(=O)C1CCC(=O)N(Cc2cccc(F)c2)C1 (configuration not stated) .
## Result inactive

## Task Likewise for C=CCn1c(CCc2ccc(OC(C)C)cc2)n[nH]c1=S ?
## Result inactive

## Task Try Cc1cc(=O)oc2c3c(cc(OCC(=O)NCc4ccccn4)c12)OC(C)(C)CC3 next.
## Result inactive

## Task Another compound: CCCCCc1c(C)nc(N2CCN(Cc3ccc4c(c3)OCO4)CC2)[nH]c1=O
## Result inactive

## Task Then what about the compound CCn1c(SCC(=O)NC2=NCCS2)nnc1C(C)NC(=O)c1ccccc1F (configuration not stated) ?
## Result inactive

## Task Same question for N#CC1=C(SCc2ccc(C#N)cc2)N=C(N)C(c2nc(-c3ccccc3)cs2)C12CCCCC2 (configuration not stated) please.
## Result active

## Task // repeat for CCOC(=O)c1ccccc1NS(=O)(=O)c1c(C)nc2sccn2c1=O and report
## Result inactive

## Task Now the compound CC1=CC(C)(C)NC(=S)N1c1ccccc1
## Result active

## Task Repeat with Nn1cnnc1N/N=C/c1cc([N+](=O)[O-])c(Cl)cc1Cl
## Result active

## Task O=[N+]([O-])c1ccc(N2CCSCC2)cc1O ?
## Result inactive

## Task Subsequent entry: CC(C)Oc1ccc(Cc2n[nH]c(=S)n2Cc2ccccc2)cc1Cl
## Result active

## Task Would you kindly repeat that for O=C1CSC(=S)N1/N=C/c1ccc(O)c([N+](=O)[O-])c1 ?
## Result active

## Task Here is the next compound: O=C(Cc1ccccc1)Nc1ccc(NC(=O)c2cccnc2)cc1
## Result inactive

## Task Same thing, different compound: CCn1nnnc1SCC(=O)Nc1ccc(N(C)C)cc1
## Result inactive

## Task Moving on to the next compound: CC(=O)N(OCc1ccc(OC(C)C)c(Cl)c1)C(C)=O
## Result inactive

###

measured.target: Nuclear receptor ROR-gamma (Mus musculus) (UniProt P51450)
method.notes: qHTS for inhibitors of ROR gamma transcriptional activity; also: nearly all actives have a fitted effect of over 60% in size
measurement.setup: Drosophila S2 Gal4-RORgamma UAS-luciferase reporter, 20 h; series mostly up to 53.6 µM
In all, about 310,000 compounds went through this assay and about 17,000 (5.5%) were called active. About 11% were inconclusive and are not listed. Calls come from the whole dose curve; as a rule, active = well fitted inhibition curve with a large enough effect; inconclusive = small, poorly fitted or top-dose-only effect, or effect the other way; inactive = no such curve, though single readings can be large or run the other way. For the sample, actives were picked, then their nearest neighbours and some compounds at random.
Lab note: assign the record to one of active, inactive

## Task Called result for COc1cccc(Cn2c(=O)c(C)nc3cnc(Oc4ccccc4)nc32)c1
## Result inactive

## Task Continue with Cc1ccc(Cn2c(=N)c(S(=O)(=O)c3ccc(C)cc3)cc3c(=O)n4ccccc4nc32)cc1
## Result inactive

## Task What about Cc1cc(C)nc(S/C=C/C(=O)c2ccccc2)n1 ?
## Result active

## Task What do you have for CCC(C)[C@H](NC(=O)N1c2ccccc2NC(=O)[C@@H]1C(C)C)C(=O)N[C@@H](Cc1ccccc1)C(=O)O (some centres not stated) ?
## Result inactive

## Task Now the same for CSc1ccccc1NC(=O)Cc1ccc(Br)cc1
## Result inactive

## Task COCc1ccc(C(=O)NC2CC(C)(C)Cc3c2cnn3-c2ccc(C)cc2)o1 (configuration not stated) , same question.
## Result inactive

## Task # iterate: O=C(OCC(=O)N1CCN(C(=O)c2ccco2)CC1)c1cccc(O)c1
## Result inactive

## Task Note, next up: CCOc1ccc(-n2c(SCC(=O)OC)nc3sc4c(c3c2=O)CCN(C)C4)cc1
## Result inactive

## Task What do you get for COc1ccccc1CN1CCNC(=O)C1CC(=O)N(C)CC1CCOCC1 (configuration not stated) ?
## Result inactive

## Task Input Cc1cc(F)ccc1NC(=S)NCCc1ccccc1
## Result active

## Task // next record CCCCn1c(-c2cccc(C)c2)nc2cc3[nH]c(=O)c(C(C)C)nc3cc21
## Result inactive

## Task What do you get for C=C(C)CNC(=S)N/N=C/c1ccccc1OCC(=O)O ?
## Result active

## Task // same read-out, input: O=C(O)c1ccc(OCC2CCCO2)cc1 (configuration not stated)
## Result inactive

## Task And what about the compound O=C(Nc1nncs1)c1cccc(S(=O)(=O)N2CCCCC2)c1 ?
## Result inactive

## Task Consider next the compound O=C(CC(=O)N/N=C\c1ccc(F)cc1)NCCc1ccccc1 in the same way.
## Result inactive

## Task Would you mind doing O=C(CSc1n[nH]c(=O)n1-c1ccccc1)Nc1ccccc1C(F)(F)F as well?
## Result inactive

## Task And what about the compound CCOc1ccccc1/C=N/NC(=O)CNC(=O)COc1ccccc1 ?
## Result inactive

## Task Also CCNc1ncc2ncc(=O)n(CCc3ccccc3)c2n1 , if possible.
## Result inactive

## Task // next record O=C(NNC1=NCCC1)c1cccc(S(=O)(=O)N2CCCCC2)c1
## Result active

## Task Ok, now CC(C)c1nnc(NC(=O)COC(=O)/C=C/c2ccc([N+](=O)[O-])cc2)s1
## Result inactive

## Task Moving on to CSc1ccccc1NC(=O)CN(C)CC(=O)Nc1ccc(Cl)cc1[N+](=O)[O-]
## Result active

## Task Same for O=C(NCCc1ccc(Cl)cc1)c1cccc(N2CCCC2=O)c1
## Result inactive

###

measured.target: Nuclear receptor ROR-gamma (Mus musculus) (UniProt P51450)
method.notes: qHTS for inhibitors of ROR gamma transcriptional activity; also: nearly all actives have a fitted effect of over 60% in size
measurement.setup: Drosophila S2 Gal4-RORgamma UAS-luciferase reporter, 20 h; series mostly up to 53.6 µM
Hit rate of the full screen: of about 310,000 compounds, about 17,000 (5.5%) were called active. Not shown: some 11% with an inconclusive outcome. The call rests on the fitted dose curve; in most records, active means well fitted inhibition curve with a large enough effect; inconclusive means small, poorly fitted or top-dose-only effect, or effect the other way; inactive means no such curve, though single readings can be large or run the other way. What follows is part of a selection rich in actives, with near analogues and random picks from the rest.
Classes to choose from: Yes (active), No (inactive)

## Task Assay outcome for COc1ccc(-c2c3c(=O)n(C)c(=O)n(C)c3cn2-c2cccc(OC)c2)cc1 : what was it?
## Result No

## Task Follow-up item: O=C(CSCc1ccccc1)N1CCc2ccccc21
## Result No

## Task Same for O=C(NC(=S)N1CCc2ccccc21)c1ccco1
## Result Yes

## Task And COc1ccccc1CN1CCCC(N2CCN(c3ccc(F)cc3)CC2)C1 (configuration not stated) ?
## Result No

## Task How about this compound: NC(=O)N1CCc2ccccc21
## Result No

## Task And Cc1ccc(-c2c3c(=O)n(C)c(=O)n(C)c3cn2-n2cnnc2)cc1 ?
## Result Yes

## Task Would you mind doing CC(=O)NN1C(=O)c2ccccc2NC1c1ccccc1 (configuration not stated) as well?
## Result No

## Task Next up: Cc1ccc(-c2c3c(=O)n(C)c(=O)n(C)c3cn2-c2ccccc2O)cc1
## Result No

## Task Now the same for O=c1[nH][nH]c(=O)c2cc(N3CCCC3)ccc12
## Result No

## Task Again, but for O=C1C=CC(=O)N1c1ccc(N2CCCCC2)cc1
## Result Yes

## Task For CCOc1ccc(CN2CCN(Cc3c[nH]c4ccccc34)CC2)cc1 then?
## Result No

## Task What do you get for CC(C)C[C@H]1CN=C(Nc2ccccc2)N1CC1CCCCC1 ?
## Result No

###

measured.target: Nuclear receptor ROR-gamma (Mus musculus) (UniProt P51450)
method.notes: qHTS for inhibitors of ROR gamma transcriptional activity; also: nearly all actives have a fitted effect of over 60% in size
measurement.setup: Drosophila S2 Gal4-RORgamma UAS-luciferase reporter, 20 h; series mostly up to 53.6 µM
Out of some 310,000 compounds screened, about 17,000 (5.5%) were called active. Another 11% or so got no clear call; they are omitted. The call rests on the fitted dose curve; in most records, active means well fitted inhibition curve with a large enough effect; inconclusive means small, poorly fitted or top-dose-only effect, or effect the other way; inactive means no such curve, though single readings can be large or run the other way. This is one part of a sample in which actives are shown more often than they occur.
Your answer must be one of the following: active, inactive

## Task What did the test return for CC(C)CC(=O)NC(=S)NCc1ccccc1 ?
## Result active

## Task Now the same for O=C(c1c(F)cccc1F)N1CCN(c2ncc(Br)cn2)CC1
## Result inactive

## Task // next record O=C(CSc1cccc2cccnc12)N/N=C/c1cccnc1
## Result active

## Task Same again, this time with C=CCn1c(=S)[nH]c2nc3c(cc2c1=O)COC(C)(C)C3
## Result active

## Task What would you report for C=CCOc1ccc(/C=C2/C(=O)ON=C2C)cc1OCC ?
## Result inactive

## Task Do the same for CC(C)CCSc1ncnc2c1oc1nc3c(cc12)COC(C)(C)C3 please
## Result inactive

## Task Now consider CC(C)CC(=O)c1c[nH]c(C(=O)NCc2ccccc2)c1 and answer again.
## Result inactive

## Task How about this molecule: CC(C)CC(=O)NC(=S)Nc1cc(C(=O)O)ccc1Cl
## Result inactive

## Task Next: COc1cccc(NC(=O)N2CCC(NC(=O)C(Cc3cccc(C)c3)NC(C)=O)CC2)c1 (stereo not drawn)
## Result inactive

## Task Note, next up: Cc1ccc(N=C2NC(=O)/C(=C/C=C/c3ccco3)S2)cc1C
## Result inactive

## Task How about this molecule: N#Cc1c(Cl)nc(-c2cccnc2)nc1-c1ccccc1
## Result inactive

## Task Repeat with C/C(CC(=O)Nc1ccc(C)cc1C)=N\NC(=O)C(C)C
## Result inactive

## Task Now the same for COc1cc(/C=C2/C(=O)ON=C2C)ccc1OCc1ccccc1F
## Result active

## Task Next entry: CCOc1cc(/C=C(/C#N)c2ccc(Cl)cc2)cc(Cl)c1OCC(=O)O
## Result active

## Task Try this molecule next: O=C(Nc1ccc(N2CCCC2=O)cc1)c1cncc(Br)c1
## Result inactive

## Task Can you check Cc1ccc(NC(=O)CSc2cccc3cccnc23)c(C)c1 next?
## Result active

## Task Request: CCOC(=O)CN/C=C(\C#N)c1ccc(F)cc1
## Result inactive

## Task Query COc1ccc(NS(=O)(=O)c2ccc(NC(=S)NC(=O)CC(C)C)cc2)cc1 next
## Result inactive

## Task Moving on to Cc1ccccc1/C=C\c1nc(O)c([N+](=O)[O-])c(=O)[nH]1
## Result inactive

## Task Follow-up entry: Cc1ccc(NC(=O)Cn2nc(C)c3ccccc3c2=O)c(C)c1
## Result inactive

## Task Quick one: Cc1c(NC(=O)CSc2nnnn2-c2ccc(C(=O)O)cc2)c(=O)n(-c2ccccc2)n1C
## Result inactive

## Task Please do the same for O=C(c1ccco1)N1CCN(C(=O)c2cc(-c3ccccc3F)no2)CC1 as well.
## Result inactive

## Task # iterate: COc1cc(/C=C2/C(=O)ON=C2C)ccc1OCc1cccc(F)c1
## Result inactive
